Values compiled from patent US10377774B2.

# System: human neuroblastoma cell line SH-SY5H
# ASSAY_EXPLANATION: MTT cell growth inhibition, SH-SY5H
# Type: cell-based
# CONDITION_INFO: Homo sapiens, Neuroblastoma cell, MTT assay, 72 h, read-out: IC50, growth of tumor cell line
ASSAY_READOUT: IC50

Query :: Endpoint output: IC50 of CC[C@]12C=CCN3CC[C@@]4(c5cc([C@@]6(C(=O)OC)C[C@@H]7C[C@@H](C(C)(F)F)CN(Cc8c6[nH]c6ccccc86)C7)c(OC)cc5N(C)[C@H]4[C@@](O)(C(=O)NN)[C@@H]1O)[C@@H]32 [JJ-CCFN, hydrazinolyzed vinflunine] . Value?
Result :: 159 nM

Query :: Please look up its IC50: CC[C@]1(O)C[C@@H]2CN(CCc3c([nH]c4ccccc34)[C@@](C(=O)OC)(c3cc4c(cc3OC)N(C)[C@H]3[C@@](O)(C(=O)NN)[C@H](O)[C@]5(CC)C=CCN6CC[C@]43[C@@H]65)C2)C1 [JJ-CCJ, hydrazinolyzed vinblastine]
Result :: 6.24 nM
